The reported measurements were obtained from ChEMBL document CHEMBL1136262.

molecular target: Cyclin-dependent kinase 2/cyclin A (Homo sapiens) (UniProt P24941+P20248+P78396); experiment: Inhibition of human Cyclin-dependent kinase 2 cyclin A3 at 100 uM; type: protein-complex assay
Catalogue of inhibition readings, one per entry.
Just the number in %, nothing appended.

get_value(item= COC(=O)Nc1nc(N)nc(OCC2CCCCC2)c1N=O , readout=inhibition) returns 6

get_value(item= NC(=O)N/N=C/c1c(N)nc(N)nc1OCC1CCCCC1 , readout=inhibition) returns 44

get_value(item= CC(=O)Nc1nc(N)nc(OCC2CCCCC2)c1N=O , readout=inhibition) returns 28

get_value(item= Nc1nc(N)c(C(O)c2ccccc2)c(OCC2CCCCC2)n1 (stereo not drawn) , readout=inhibition) returns 12

get_value(item= Nc1nc(Nc2ccccc2)c(N=O)c(OCC2CCCCC2)n1 , readout=inhibition) returns 47

More entries:
get_value(item= COc1ccc(Nc2nc(N)nc(OCC3CCCCC3)c2N=O)cc1 , readout=inhibition) returns 8

get_value(item= Nc1nc(N)c(N)c(OCC2CCCCC2)n1 , readout=inhibition) returns 52

get_value(item= Nc1nc(N)c(/C=N/O)c(OCC2CCCCC2)n1 , readout=inhibition) returns 37
